All values here come from PubChem BioAssay AID1259321.

# TEST SYSTEM: Nuclear receptor subfamily 1 group D member 1 (Homo sapiens)
# ASSAY INFO: modulators of Rev-erb alpha DNA binding, dose response, biochemical, FITC-DNA, fluorescence polarization (AID 1259321)
Activity calls are given as the source filed them.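 How the source made its calls: active means half-maximal concentration for changing protein binding to DNA, from the fitted dose curve, below 10 micromolar; inactive means the rest.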
Labels: yes (1) for active, no (0) for inactive

1. COc1ccc(NC(=O)CSc2nc(-c3ccc(C)cc3)cc(C(F)(F)F)c2C#N)cc1: yes (1)
2. Oc1ccccc1-c1nc(NCc2ccccc2)c2ccccc2n1: no (0)
3. Cc1cc(-c2cccc([N+](=O)[O-])c2)nc2ccc3ccccc3c12: yes (1)
4. O=C(CSc1nnc(-c2cccs2)o1)c1ccc2c(c1)OCO2: no (0)
5. COc1ccccc1-c1ccc2c(c1)C(C)(Cc1cc(Cl)ccc1C(F)(F)F)C(=O)N2 (stereo unspecified): no (0)
6. N#CC(C#N)=C1C=C2C=C(N3CCCCCC3)CCC2CC1 (stereo unspecified): yes (1)
7. CN1C(=O)C(=Cc2ccc(N3CCCCC3)o2)C(=O)N(C)C1=S: no (0)
8. O=C(CCn1c(=O)c2cccn2c2cccnc21)NCc1cccc(Cl)c1: no (0)
9. COc1ccc(CCn2c(-c3ccc(OC)cc3)nc3c(c(=O)c4ccccc4n3C)c2=O)cc1: yes (1)
10. CCOc1ccc2nc(N/C(N)=N/C(=S)Nc3cccc(C)c3)nc(C)c2c1: yes (1)
11. COc1ccc(-n2c(SCC(=O)NC3CCCCC3)nc3ccsc3c2=O)cc1: yes (1)

###

# TEST SYSTEM: Nuclear receptor subfamily 1 group D member 1 (Homo sapiens) (UniProt P20393)
# Sequence (P20393 whole entry, looked up): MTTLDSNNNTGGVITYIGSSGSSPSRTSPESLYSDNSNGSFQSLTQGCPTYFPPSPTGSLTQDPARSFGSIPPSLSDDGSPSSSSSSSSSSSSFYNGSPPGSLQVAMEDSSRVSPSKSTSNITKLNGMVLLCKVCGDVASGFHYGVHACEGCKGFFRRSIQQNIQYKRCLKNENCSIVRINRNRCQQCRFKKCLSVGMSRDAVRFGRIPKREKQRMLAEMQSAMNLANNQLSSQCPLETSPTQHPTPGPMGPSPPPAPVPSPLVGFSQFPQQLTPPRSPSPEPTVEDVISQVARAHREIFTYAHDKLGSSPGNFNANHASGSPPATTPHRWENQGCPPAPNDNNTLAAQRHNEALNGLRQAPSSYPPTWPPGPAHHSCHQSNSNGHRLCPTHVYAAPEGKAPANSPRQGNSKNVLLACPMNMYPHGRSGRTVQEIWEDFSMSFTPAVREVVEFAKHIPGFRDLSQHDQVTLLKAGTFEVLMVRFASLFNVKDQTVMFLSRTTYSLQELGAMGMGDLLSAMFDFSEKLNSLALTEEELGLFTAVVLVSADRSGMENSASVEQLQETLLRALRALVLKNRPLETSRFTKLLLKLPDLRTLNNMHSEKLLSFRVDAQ
# ASSAY INFO: modulators of Rev-erb alpha DNA binding, dose response, biochemical, FITC-DNA, fluorescence polarization (AID 1259321)
Active and inactive are the calls of the source.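 Rule for the calls: active = half-maximal concentration for changing protein binding to DNA, from the fitted dose curve, below 10 micromolar; inactive = the rest.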
Possible outcomes: active, inactive

1) COc1cc2c(cc1OC)-c1cc3ccc4c(c3c[n+]1CC2)OCO4: inactive
2) Cc1cc(C)c2nc(SCC(=O)NCC3CCCO3)c(C#N)cc2c1 (stereo not drawn): inactive
3) NS(=O)(=O)c1ccc(CCn2c(=S)[nH]c3ccc(F)cc3c2=O)cc1: inactive
4) COc1cccc(Nc2nc(-c3ccccc3O)nc3ccccc23)c1: active
5) CCN(CC)c1ccc(/C=C(/C#N)c2nc3ccccc3[nH]2)c(OC(C)C)c1: active
6) CCc1cc2cc3c(cc2nc1SCC(=O)Nc1nnc(C)s1)OCCO3: active
7) CCNC(=O)C[C@H]1CC[C@H]2[C@@H](COc3ccc(NC(=O)c4ccc5c(c4)OCO5)cc3C(=O)N2C)O1: inactive
8) O=C(NCc1ccccc1)C(c1cc2ccccc2o1)n1c(=O)c(-c2ccccc2)nc2ccccc21 (stereo not drawn): inactive
9) COc1ccc(-c2c(C)nc(N)nc2-c2ccc(OCc3ccc(C)cc3)cc2O)cc1OC: inactive
10) Nc1nc(-c2cccs2)c(-c2cccs2)s1: active
11) CCOC(=O)c1sc(NC(=S)NC(=O)C2CCCC2)cc1C: active
12) COCCN(Cc1cc2cc(C)ccc2n2nnnc12)C(=S)Nc1ccc(C)cc1: inactive
13) Cc1ccc2nc(SCC(=O)Nc3ccc4sc(C)nc4c3)c(C#N)cc2c1: inactive

###

# TEST SYSTEM: Nuclear receptor subfamily 1 group D member 1 (Homo sapiens)
# ASSAY INFO: modulators of Rev-erb alpha DNA binding, dose response, biochemical, FITC-DNA, fluorescence polarization (AID 1259321)
Activity calls are given as the source filed them.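 How the source made its calls: active means half-maximal concentration for changing protein binding to DNA, from the fitted dose curve, below 10 micromolar; inactive means the rest.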
Outcomes: 1.0 for active, 0.0 for inactive

1. COc1ccc(NC(=O)CSc2nc3ccccc3c(=O)n2-c2ccc3c(c2)OCO3)c(OC)c1: 0.0
2. CN(C)c1nc(-c2cccnc2)nc(-c2ccccc2)c1C#N: 0.0
3. O=c1c2ccccc2nc2sc(Nc3ccc(F)cc3)nn12: 0.0
4. Cn1c(SCC(=O)NCc2ccc3c(c2)OCO3)ncc(C(=O)Nc2ccc(F)cc2)c1=O: 1.0
5. Cc1nc2nc(SCC(=O)c3ccccc3)[nH]c2cc1Br: 0.0
6. COc1ccccc1N1C(=O)c2cccc3c(N(C)CCO)ccc(c23)C1=O: 1.0
7. N#Cc1ccccc1N1CCN(C(=O)C2CCN(c3ncnc4c3sc3cccc(F)c34)CC2)CC1: 1.0
8. COc1ccc(-c2nc(NC(=O)c3ccc(OCC(=O)Nc4ccc(F)cc4)c(OC)c3)sc2C)cc1: 0.0
9. COc1ccc(/C=C2\SC(=S)N(CCCC(=O)NC3CCCC3)C2=O)cc1OC: 0.0
10. CCc1ccc(NC(=O)CSc2nc3ncc(Br)cc3[nH]2)cc1: 1.0
11. Cn1c(SCC(=O)c2ccc3c(c2)Cc2ccccc2-3)nnc1-c1ccccc1: 1.0
12. COc1ccc(NC(=O)c2sc3nc(N4CCCC4)c4c(c3c2N)CC(C)(C)OC4)c(OC)c1: 0.0
13. COc1cc(/C=C(\C#N)c2nc3ccccc3[nH]2)cc(OC)c1O: 0.0
14. CCOC(=O)c1c(NC(=S)Nc2ccc(OC)cc2)sc2c1CCC2: 1.0
15. COc1ccc2nc(SC)c(C#N)cc2c1: 0.0
16. COc1cccc(-c2nc(CS(=O)(=O)CC(=O)NCc3ccc(Cl)cc3)c(C)o2)c1: 0.0
17. CCN(CC)c1ccc(C=C2SC(=S)NC2=O)cc1: 1.0
18. COc1ccc2c(C)cc(SCC(=O)Nc3ncc(Cl)cc3Cl)nc2c1: 1.0
19. Cc1cc(NC(=O)CSc2nc3cc(C)c(C)cc3cc2C)no1: 0.0
20. CCOC(=O)CSc1nc2cc3c(cc2cc1C#N)OCCO3: 0.0
21. Cc1cc(Br)ccc1NC(=O)c1sc2ncn(CC(=O)N3CCN(c4ccccn4)CC3)c(=O)c2c1C: 1.0
22. C/C(N)=C(/C#N)C(=O)CSc1nc2ccccc2c(=O)n1-c1ccc(C)c(Cl)c1: 0.0
23. CC(=O)c1cnc2c(-c3cccc(Br)c3)cnn2c1C: 0.0
24. Cc1cccc2cc(C#N)c(SCC(=O)Nc3ccccc3N3CCOCC3)nc12: 0.0
25. CC(=O)c1cccc(NC(=O)c2csc(-n3nc(C)cc3C(F)(F)F)n2)c1: 1.0
26. COc1cccc(C(=O)CSc2nnc(-c3cc(OC)cc(OC)c3)o2)c1: 0.0
27. CCOc1ccc(N=Nc2c(=O)[nH]n3c(=O)cc(C)[nH]c23)cc1: 0.0
28. CCc1nnc(NC(=O)c2oc3ccc(Br)cc3c2C)s1: 1.0
29. Cc1ccc(C)c(Nc2nc3c(S(=O)(=O)c4ccccc4)nnn3c3ccccc23)c1: 1.0
30. O=C(Nc1nnc(SCc2ccccc2)s1)c1cc2c(s1)CCCC2: 1.0
